Catalogue of compounds with associated melting point
parameter_measured: melting point

compound	parameter_measured	recorded_result
Nc1cc2[nH]c(=O)oc2cc1NC(=O)C(=O)N1CCC(Cc2ccccc2)CC1	melting point	296 °C
CCCCOP(=O)(CCCCC1(C(=O)NCCC)c2ccccc2-c2ncccc21)OCCCC (centres undefined)	melting point	93.5 to 96 °C
S=C=Nc1ccc2sc(-c3cccnc3)nc2c1	melting point	160 to 162 °C
CC/C(=C\CCC(O)(CC)CC)c1cc(COc2ccc(CO)c(CO)c2)cs1	melting point	63 to 64 °C

----------
Catalogue of compounds with associated melting point

compound	melting point
Cc1ccc(Cn2c(=O)cc(C(C)C(=O)O)c3cc(C)ccc32)cc1 (stereo not drawn)	188 to 190 °C
CC1CCN(c2ccccc2C(=O)c2ccccc2)CC1	82 °C
COC(=O)c1c(-c2ccccc2)nc2c(c1N)c1c(n2Cc2ccc(OC)cc2)CCCC1	192 to 194 °C
CC1(C)OC(=O)C(=[N+]=[N-])C(=O)O1	93 to 94 °C
O=c1oc(-c2ccccc2)cc(O)c1SCc1ccc(OCc2ccccc2)cc1	185 to 186 °C
CC(C)[C@H](NC(=O)Cc1csc(N(C)C)n1)C(=O)N[C@@H](Cc1ccccc1)C[C@H](O)[C@H](Cc1ccccc1)NC(=O)Cc1cncs1	162 to 165 °C
C=CCOc1ncc(F)c(O)n1	138 to 141 °C
CC1=Cc2cc(C(=O)O)ccc2OC1(C)C	169 to 171 °C
COCC1(C)CC(=O)c2cc(C#N)ccc2O1 (stereo not drawn)	79 to 81 °C
COC(=O)C(=O)c1c(F)c(F)c(OCCOc2ccc3ccccc3c2)c(F)c1F	69 to 71 °C
CC(=O)C1=C(O)c2c(c3ccccc3n2C)S(=O)(=O)N1	210 to 211 °C
COC(=O)C#CC(=O)c1ccc(F)cc1	62 to 63 °C
CC1CCOC(CBr)(c2ccc(Cl)cc2Cl)O1 (stereo not drawn)	69 to 70.5 °C
CCN(CC)CCNC(=O)c1cc(Cl)c(N)cc1OCCS(=O)CC (stereo not drawn)	92 to 94 °C
Cc1cc(-c2nc3ccccc3c(=O)n2-c2ccc(Cl)cc2)cc(C)c1OCCO	101 to 103 °C
CCOC(=O)c1ccc2[nH]c([Si](C)(C)C)c(CCCO[Si](C)(C)C(C)(C)C)c2c1	115 to 116 °C
Nc1cc(Cl)c(Cc2ccc(C(=O)c3cnc(Cl)c(Cl)c3)cc2)c(Cl)c1	140 to 145 °C
O=C(C=Cc1ccc(O)cc1)N1CCc2c([nH]c3ccccc23)C1c1ccc2c(c1)CCO2 (stereo not drawn)	189 °C
